molecular target: human orexin-2 receptor (Homo sapiens (Human)); test: FLIPR Ca2+ flux assay, hOX2R; details: CHO cells expressing the receptor; agonist 70 pM Ala-6,12 human orexin-A
Sequence (O43614 whole entry): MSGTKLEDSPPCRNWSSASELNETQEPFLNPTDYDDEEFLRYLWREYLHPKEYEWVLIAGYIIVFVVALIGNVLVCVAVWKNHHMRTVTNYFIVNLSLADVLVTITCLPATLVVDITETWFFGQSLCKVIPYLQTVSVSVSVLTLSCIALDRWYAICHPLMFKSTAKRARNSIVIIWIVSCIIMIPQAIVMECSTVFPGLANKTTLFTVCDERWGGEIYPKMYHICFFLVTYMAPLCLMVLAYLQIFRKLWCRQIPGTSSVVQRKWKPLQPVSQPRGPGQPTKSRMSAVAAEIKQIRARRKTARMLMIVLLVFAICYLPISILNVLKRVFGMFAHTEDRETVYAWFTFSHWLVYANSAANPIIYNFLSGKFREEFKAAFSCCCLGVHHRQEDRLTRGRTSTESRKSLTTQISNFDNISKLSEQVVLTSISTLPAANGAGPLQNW
Overview of reported pIC50 across a group of compounds:
pIC50 is a log-scale quantity: -log10 of the concentration expressed in molar.

Short answer for CCN(CCn1nc(C)c(C(C)(C)O)n1)C(=O)c1ccccc1C1CCC1 [Example 40] : pIC50 was 7.89

* * *

biological target: human orexin-2 receptor (Homo sapiens (Human)); test: FLIPR Ca2+ flux assay, hOX2R; settings: CHO cells expressing the receptor; agonist 70 pM Ala-6,12 human orexin-A
MEASURED ATTRIBUTE: IC50 (nM)
Provide only the numeric value, understood in nM.

Check out these entries, answers already filled in.
> print(dat)
                                   molecule                           measured.target  reading
1  CCN(CCn1nc(C)c(C(C)(C)O)n1)C(=O)c1ccccc1-n1ncnn1  human orexin-2 receptor (Homo sapiens (Human))       29
2  CCN(CCn1nc(C)c(C(C)(C)O)n1)C(=O)c1ccc(F)cc1-n1nccn1  human orexin-2 receptor (Homo sapiens (Human))       10
3  CCN(CCn1ncc(C(C)O)n1)C(=O)c1ccccc1-n1nccn1 (stereo not shown)  human orexin-2 receptor (Homo sapiens (Human))      373
4  CCN(CCn1ncc(C(C)(C)O)n1)C(=O)c1ccccc1SC(F)(F)F  human orexin-2 receptor (Homo sapiens (Human))       34
5  CCN(CCn1nc(C)c(C(C)(C)O)n1)C(=O)c1nccnc1-c1ccccn1  human orexin-2 receptor (Homo sapiens (Human))       87

Short answer for CCCc1ccccc1C(=O)N(CC)CCn1nc(C)c(C(C)(C)O)n1 : IC50 was 32

Short answer for CCN(CCn1nc(C)c(C(C)(C)O)n1)C(=O)c1ccc(OC)nc1C1CC1 : IC50 was 14

Short answer for CCN(CCn1ncc(C(C)(C)O)n1)C(=O)c1ccccc1-n1nccn1 : IC50 was 58

Short answer for CCOc1ccccc1C(=O)N(CC)CCn1nc(C)c(C(C)(C)O)n1 : IC50 was 27

Short answer for CCN(CCn1ncc(C(C)(O)CC)n1)C(=O)c1ccccc1-n1nccn1 (stereo not shown) : IC50 was 65

Attribution: patent US10155750B2
